These entries and their values trace back to patent US20030114404.

# experimentalTarget: VEGF165 (Homo sapiens, UniProt P15692-4 P15692-4:27-191)
# Sequence (P15692 other isoform, or with tags, fused parts or gaps): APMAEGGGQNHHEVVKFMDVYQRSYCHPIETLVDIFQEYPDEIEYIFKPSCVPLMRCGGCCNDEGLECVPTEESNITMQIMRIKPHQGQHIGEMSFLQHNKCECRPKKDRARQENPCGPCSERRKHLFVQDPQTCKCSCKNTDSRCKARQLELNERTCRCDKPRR
# assayComment: filter; 37 C
# conditionSet: tags: carrier-free, Sf 21 insect cell expressed, R & D Systems; chain copies: 2 (inferred)
parameterMeasured: Kd (nM)
Report only the number, with the unit nM understood.

Problem: Reported Kd for GACGAUGCGGUAGGAAGAAUUGGAAGCG (ssRNA, 2'-F pyrimidines) [t22a] : what is it?
Solution: 3

Problem: Quick one: Kd of GCGGUAGGAAGAAUUGGAAGCGC (ssRNA, 2'-F pyrimidines except 2'-OH C23) [t22c] ?
Solution: 0.09

Problem: Consider the binder shown here: GAACCGAUGGAAUUUUUGGACGCUC (ssRNA, 2'-F pyrimidines, N26 = 3'-3' inverted dT [26 = 3'-3' inverted dT (N replaced by T); 2'-F pyrimidines at 4,5,8,13,14,15,16,17,21,23,24,25]) [t2c] What is its recorded Kd?
Solution: 0.2

Problem: Kd lookup needed for GCGAACCGAUGGAAUUUUUGGACGCUCGC (ssRNA, 2'-F pyrimidines except 2'-OH C29) [t2a] , thanks.
Solution: 0.04

Problem: Entry CGGUAGGAAGAAUUGGAAGCGC (ssRNA, 2'-F pyrimidines except 2'-OH C22) [t22d] : reported Kd = ?
Solution: 0.1

Problem: Name the reported Kd value associated with the binder GCGGAAUCAGUGAAUGCUUAUACAUCCGC (ssRNA, 2'-F pyrimidines, N30 = 3'-3' inverted dT [30 = 3'-3' inverted dT (N replaced by T); 2'-F pyrimidines at 2,7,8,11,15,17,18,19,21,23,25,26,27,29]) [t44]
Solution: 0.01

Problem: Would you kindly share the measured Kd for ACGAUGCGGUAGGAAGAAUUGGAAGCGC (ssRNA, 2'-F pyrimidines except 2'-OH C28) [t22b] ?
Solution: 0.08
